Origin of the recorded values: ChEMBL document CHEMBL1141066

Catalogue of pIC50 readings, one per entry.
- assay_target: Disintegrin and metalloproteinase domain-containing protein 17 (Homo sapiens, UniProt P78536)
- Sequence (P78536 whole entry, the tested form may be a part): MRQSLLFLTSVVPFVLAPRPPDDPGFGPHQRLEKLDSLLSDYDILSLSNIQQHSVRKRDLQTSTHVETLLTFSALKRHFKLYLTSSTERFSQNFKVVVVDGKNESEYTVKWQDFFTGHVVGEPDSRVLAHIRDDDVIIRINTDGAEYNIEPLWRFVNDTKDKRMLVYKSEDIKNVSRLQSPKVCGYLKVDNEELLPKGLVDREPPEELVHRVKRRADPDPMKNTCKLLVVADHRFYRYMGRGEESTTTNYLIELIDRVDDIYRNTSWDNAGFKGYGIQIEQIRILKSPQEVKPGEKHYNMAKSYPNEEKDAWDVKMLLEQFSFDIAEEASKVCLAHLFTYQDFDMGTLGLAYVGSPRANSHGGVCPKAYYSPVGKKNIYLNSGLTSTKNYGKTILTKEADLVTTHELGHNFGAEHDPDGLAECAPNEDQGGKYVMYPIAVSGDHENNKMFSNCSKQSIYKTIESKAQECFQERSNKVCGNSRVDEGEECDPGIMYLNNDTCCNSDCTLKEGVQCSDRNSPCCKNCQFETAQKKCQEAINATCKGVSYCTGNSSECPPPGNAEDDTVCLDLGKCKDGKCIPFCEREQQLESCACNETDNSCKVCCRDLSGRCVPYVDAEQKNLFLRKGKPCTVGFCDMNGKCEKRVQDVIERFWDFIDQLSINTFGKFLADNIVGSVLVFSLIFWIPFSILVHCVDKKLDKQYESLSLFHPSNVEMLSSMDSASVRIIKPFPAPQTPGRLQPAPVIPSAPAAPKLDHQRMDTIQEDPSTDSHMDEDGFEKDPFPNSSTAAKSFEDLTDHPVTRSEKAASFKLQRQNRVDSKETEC
- method_notes: Inhibitory activity against TACE[ADAM metallopeptidase domain 17] in isolated enzyme assay
pIC50: −log10 of the molar value.

- molecule: "CC#CCOc1ccc(S(=O)(=O)N2CCSCC2C(=O)NO)cc1 (configuration not stated)"
  pIC50: 8.52
- molecule: "CC#CCOc1ccc(S(=O)(=O)N2CCOCC2C(=O)NO)cc1 (configuration not stated)"
  pIC50: 8.30

###

- assay_target: UniProtKB P45452
pIC50: −log10 of the molar value.
value_type: pIC50

- molecule: "CC#CCOc1ccc(S(=O)(=O)N2CCN(C(=O)OC)CC2C(=O)NO)cc1 (stereo unspecified)"
  assay_target: "UniProtKB P45452"
  reported: 8.05
